Assay: yeast display, Sf9 membrane polyspecificity reagent, FACS + sequencing; frameworks hold sequencing errors
reported.property: polyreactivity (PSR sort gate)

In: Given QVQLVESGGGLVQAGGSLRLSCAASGFIFWDNAMGWYRQAPGKERELVAAISRNGGRTYYADSVKGRFTISRDNAKNTVYLQMNSLKPEDTAVYYCAAYTARSYGMDYWGQGTQVTVSS , state its recorded polyreactivity (PSR sort gate).
Out: high polyreactivity

In: Given QVTLVESGGGLVQAGGSLRLSCAASVLIFYSYAMGWYRQAPGKERELVAAISSGTRTYYADSVKGRFTISRDNAKNTVYLQMNSLKPEDTAVYYCAAVDAHKKRYPPSGRLYGYWGHGTQVTVSS , state its recorded polyreactivity (PSR sort gate).
Out: high polyreactivity

* * *

Experiment: yeast display, Sf9 membrane polyspecificity reagent, FACS + sequencing; frameworks hold sequencing errors
reported.property: polyreactivity (PSR sort gate)

Some sequences with recorded polyreactivity (PSR sort gate):
In: Given QVQLVESGGGLVQAGGSLRLSCAASASTFYTKVMGWYRPAPGKERELVAAISSSGSRTYYADSVKGRFTISRDNAKNTVYLQMNSLKPEDTAVYYCNAYYRLEPDDGDYDYWGQGTQVTVSS , state its recorded polyreactivity (PSR sort gate).
Out: high polyreactivity

In: Given QVQLVESGGGLVQAGGSLRFSCADSGSTFGTYAMGWYRQAPGKERELVAAISWSGGSTYYADSVKGRFTISRDNAKNTVYLQMNSLKPEDTAVYWGQGTQVTVSS , state its recorded polyreactivity (PSR sort gate).
Out: low polyreactivity

In: Given QVQLVESGGGLVQAGGSLRLSCAASGYTFAWYTMGWYRQAPGKERELVAAISASGVRTYYADSVKGRFTISRDNAKNTVYLQMNSLKPQDTAVYYCNRVYSTSRITQYEFDYWGQGTQVTVSS , state its recorded polyreactivity (PSR sort gate).
Out: low polyreactivity

In: Given QVQLVESGGGLVQAGGSLRLSCAASGSTSKGYAMGGYRQAPGKDRELVAAISAGGGRTYYADSVKGRFTISRENAKNTVYLQMNSLKPEDTAVYYCANAGTIYQSPREYWGQGTQVTVSS , state its recorded polyreactivity (PSR sort gate).
Out: high polyreactivity

***
In: Given QVQLVESGGGLVQAGGSLRLSCAASGFIFVRNAMGWYRQAPGKEREFVAAITRSGGSTYYADSVKGRFTISRDNAKNTVYLQMNCLKPEDTAVYYCAVLYHSRDRYTYRDEDYWGQGTQVTVSS , state its recorded polyreactivity (PSR sort gate).
Out: low polyreactivity

* * *

Assay: yeast display, Sf9 membrane polyspecificity reagent, FACS + sequencing; frameworks hold sequencing errors
reported.property: polyreactivity (PSR sort gate)

Some sequences with recorded polyreactivity (PSR sort gate):
In: Given QVQLVESGGGLVQAGGSLRLSCAASGFIFTSYALGWYRQAPGKEREFFAAISRRGGSTYYADSVKGRFTISRDNAKNTVYLQMNSLKPEDTAVYYCAADPKQHSGYDYWGQGTQVTVSS , state its recorded polyreactivity (PSR sort gate).
Out: high polyreactivity

In: Given QVQLVESGGGLVQAGGSLRLSCAASGSTFTINVMGWYRQAPGKERELVAAINCGGRTNYADSVKGRFTISRDNAKNTVYLQMNSLKPEDTAVYNCAADGRSNVRQMDYWGQGTQVTVSS , state its recorded polyreactivity (PSR sort gate).
Out: low polyreactivity

In: Given QVQLVDSGGGLVQAGGSLRLICDASGFIFFAYAMGWYRQAPGKERELVAVITSGGGTNYADSVKGRFTFSRDNAKNTVYLQMTSLKPEDTAVYYCNADYFFASTEFYYWGQGTQVTVSS , state its recorded polyreactivity (PSR sort gate).
Out: low polyreactivity

In: Given QVQLVESGGGLVQAGGSLRLSCAASGFTNAMGWYRQAPGKERELVAAISYSGDSTNYADSVKGRFTISRDNAKNTVYLQMKSLKPEDSAVYYCNASSPYDYDWGQGTQVTVSS , state its recorded polyreactivity (PSR sort gate).
Out: low polyreactivity

***
In: Given QVQLVESGGGLVQAGGSLRLSCAASGSIFSSYAMGWYRQAPGKEREMVAAITYSGGRTYYADSVKGRFTISRDNAKNTVYLQMNSLKPEDTAVYYCNARKYVGFWSRYDYWGQGTQVTVSS , state its recorded polyreactivity (PSR sort gate).
Out: high polyreactivity

In: Given QVQLVESGGGLVQAGGSLRLSCAPSGFIFGLYVMGWYRQAPGKERELVAAITTSVGSTYYADSVKGRFTISRDNAKNTVYLQMNSLKPEDTAVYYCAKTSGTIDYDYWGQGTQVTVSS , state its recorded polyreactivity (PSR sort gate).
Out: low polyreactivity

* * *

Experiment: yeast display, Sf9 membrane polyspecificity reagent, FACS + sequencing; frameworks hold sequencing errors
reported.property: polyreactivity (PSR sort gate)

Some sequences with recorded polyreactivity (PSR sort gate):
In: Given QVQLVESGGGLVQAGGSLRLSCAASGIIFEYYTIGWYRQATGKERELVASITYDGDSTYYADSVKGRFTISRDNAKNTVYLQMNSLKPEDTAVYYCAADYYSVYSSFGHYYWGQGTQVTVSS , state its recorded polyreactivity (PSR sort gate).
Out: low polyreactivity

In: Given QVQLVESGGGLVQAGGSLRLSCAASGITFEPYAMGWYRQAPGKEREFVADITWSGGSTYYADSVKGRFTISRDNAKNTVYLQMNSLKPEDTAVYYCAADGWTSYWSDYWGQGTQVTVAS , state its recorded polyreactivity (PSR sort gate).
Out: low polyreactivity

In: Given QVQLVESAGGLVQAGGSLRLSCAASGSTFDYYAMGWYRQAPGKERELVAAISRTGGRTYYADSVKGRFTISRDNAKNTVYLQMNSLKPEDTAVYYCATRNGRQYSVSYRYYYWGQGTQVTVSS , state its recorded polyreactivity (PSR sort gate).
Out: low polyreactivity

In: Given QVQLVESGGGLVQAGGSLRLSCAASGRIFQTYDMGWYRQAPGKERELVARIRLSGGSTYYADSVKGRFTISRDNAKNTVYLQMNSLKPEETAVYYCAARYSRALFTDPYYYWGQGTQVTVSS , state its recorded polyreactivity (PSR sort gate).
Out: high polyreactivity

In: Given QVQLVESGGGLVQAGGSLRLSCAASGSIFVRNAMGWYRQAPGKERELVAAITSDVNTYYADSVKGRFTISRDNGKNTVYLQMNSLKPEDTAVYYCAKGVTSQPNDPAPFPRYEYWGQGTQVTVSS , state its recorded polyreactivity (PSR sort gate).
Out: low polyreactivity

In: Given QVQLVESGGGLVQAGGSLRLSCAASGSIFGINVMGWYRQAPGKERELVAAITSGTSTYYADSVKGRFTISRDNANNTVYLQMNSLKPEDTAVYYCAALWSSRYVVHPQWYDYWGQGTQVTVSS , state its recorded polyreactivity (PSR sort gate).
Out: low polyreactivity

In: Given QVQLVESGGGLVQAGGSLRLSSAASGRTFYVNAMGWYRQAPGKERELVAAITRSSGSTHYADSVKGRFTISRDNAKNTVYLQMNSLKPEDTAVYYCAADSTYRKYYYWGQGTQVTVSS , state its recorded polyreactivity (PSR sort gate).
Out: high polyreactivity

In: Given QVQLVESGGGLVQAGGSLRLSCAASGSISSAYGMGWYIQAPGKERELVATITSGGSTNYADSVKGRFTISRDNAKNTVYLQMNSLTPEDTAVYYCAVDRYALYSGGDYWGQGTQVTVSS , state its recorded polyreactivity (PSR sort gate).
Out: low polyreactivity

In: Given QVQLVESGGGLVQAGGSLRLSCAASGRIFPVNAMGWYRQAPGKERELVATISRGGNTYYADSVKGRFTISRDNAKNTVYLQMNSLKPEDTAVYYCNVDRGNPVPPSEYWGQGTQVTVSS , state its recorded polyreactivity (PSR sort gate).
Out: low polyreactivity

In: Given QVQLVESGGGLVQAGGSLRLSCAASGFSFDFYTMGWYRQAPGKERELVAAITWSGDSTYYADSVKGRFTISRDNAKNTVDLQMNSLKPEDTAVYYCAVARVSQDGYRRRVTTWHDDYWGQGTQVTVSS , state its recorded polyreactivity (PSR sort gate).
Out: low polyreactivity

// below: polyreactivity (PSR sort gate) requested for another sequence
In: Given QVQLVESGGGLVQAGGSLRLSCAASGGTFSRNAMGWYRQAPGKERELVAAITSGGRTNYADSVKGRFTISRDNAKNTVYLKMNSLKAEDTAVYYCAARKGKETLYHSTPPYYYWGQGTQVTVSS , state its recorded polyreactivity (PSR sort gate).
Out: high polyreactivity

* * *

Assay: yeast display, Sf9 membrane polyspecificity reagent, FACS + sequencing; frameworks hold sequencing errors
reported.property: polyreactivity (PSR sort gate)

Some sequences with recorded polyreactivity (PSR sort gate):
In: Given QVQLVESGGGLVQAGGSLRLSCAASGRTFVNYAMGWYRQAPGKERELVAAISGGGGTNYADSVKGRFTISRDNAKNTVYLQMNSLKPEDTAVYYCAADTNGYEFDYWGQGTQVTVSS , state its recorded polyreactivity (PSR sort gate).
Out: low polyreactivity

In: Given QVQLRESGCGLVQAGGNLRLSCAASGNIFDADIMGWYRQAPGKERELVASITDGGSTYYADSVRCRFTISRDNAKNTVYLQMNSLKPEDTAVYYCTAIAYPDIPTYFDHDSDYFYWGQGTQVTVSS , state its recorded polyreactivity (PSR sort gate).
Out: high polyreactivity

In: Given QVQLVESGGGLDQAGGSLRLSCAASGFIFAYNTMGWYRQAPGKERELVATIRWSGGRTYYADSVKGRFTISRDNAKNSVYLQMNSLKPEDTAVYYCAKRAFSYVGGQQDRKENYYYWGQGTQVTVSS , state its recorded polyreactivity (PSR sort gate).
Out: high polyreactivity

In: Given QVQLVESGRGLVQAGRTLRLSCAASGFIFQWYTMGWYRQAPGKDRELVADIRSGGDTNYADSVKGRFTISRDTAKNSVYLQMYSLKPEDTAVYYCATETFFPLRRASYGRKLGYWGQGTQVTVSS , state its recorded polyreactivity (PSR sort gate).
Out: low polyreactivity

In: Given QVQLVESGGGLVQAGGSLRLSCAASGYTFGLYTMGWYRQAPGKEREFVATIDWSDGGTHYADSVKGRFTISRDNAKNTVYLQMNSLKPEDTAVYYCNADWYAYPYGYWGQGTQVTVSS , state its recorded polyreactivity (PSR sort gate).
Out: low polyreactivity

In: Given QVQLVESGGGLVQAGGSLRLSCAASGLTFTNYAMGWYRQAPGKELELVAAISSSGSDTYYADSVKGRFTISRDNAKNTVYLQMNSLKPEDTAVYYCAAVLTALSPDFEYEYWGQGTQVTVSS , state its recorded polyreactivity (PSR sort gate).
Out: low polyreactivity

In: Given QVQLVESGGGLVQAGGSLRLSCAASGSTFVRNAMGWYRQAPGKERELVAAISNVGSTYYADSVKGRFTISRDNAKNTVYLQMNSLKPEDTAVYYGTKQLWYHKFNYWGQGTQVTVSS , state its recorded polyreactivity (PSR sort gate).
Out: low polyreactivity

In: Given QVQLVESGGGLVQAGGSLRLSCAASGSISYFNAMGWYRQAPGKERELVAAITSGGSTYYADSVKGRFTISRDNAKNTVYLQMNSLKPEDTAVYYCNAPLEWGVYAAQNWDDGYWGQGTQVTVSS , state its recorded polyreactivity (PSR sort gate).
Out: low polyreactivity

***
In: Given QGQLVESGGGLVQAGGILLLSCAASGIIFLYYAMGWYRQAPGKERELVAAITSGGSTYYADSVKGRFTISRDNAKNTVYLQMNSLKPEDTAVYYCNAPYHGREYEWGQGTQVTVSS , state its recorded polyreactivity (PSR sort gate).
Out: high polyreactivity

In: Given QVQLVESGGGLVQAGGSLRLSCAASGLIFSRYAMGWYRQAPGKERELVAAITYRTVRTYYADSVKGRFTISRDNAKNTVYLQMNSLKPEDTAVYYCAADSARQRDYWGQGTQVTVSS , state its recorded polyreactivity (PSR sort gate).
Out: high polyreactivity

In: Given QVQLVESGGGLVQAGGSLRLSCAASGYTSYVYAMGWYRQAPGKERELVAAISLRTASTYYADSVKGRFTISRDTAQKTVYVQMNSLKPEDTAVYYCARGRETYRYSYRLNYWGQGTQVTVSS , state its recorded polyreactivity (PSR sort gate).
Out: high polyreactivity
